Origin of the recorded values: patent US12071425B2

Please go through the items and note down their IC50.
tested target: kinase domain of IRE1 alpha (His-tagged kinase dead construct KR, AA G547-L977, D688N) (Homo sapiens (Human), UniProt O75460, D688N)
Sequence (O75460 547-977 D688N): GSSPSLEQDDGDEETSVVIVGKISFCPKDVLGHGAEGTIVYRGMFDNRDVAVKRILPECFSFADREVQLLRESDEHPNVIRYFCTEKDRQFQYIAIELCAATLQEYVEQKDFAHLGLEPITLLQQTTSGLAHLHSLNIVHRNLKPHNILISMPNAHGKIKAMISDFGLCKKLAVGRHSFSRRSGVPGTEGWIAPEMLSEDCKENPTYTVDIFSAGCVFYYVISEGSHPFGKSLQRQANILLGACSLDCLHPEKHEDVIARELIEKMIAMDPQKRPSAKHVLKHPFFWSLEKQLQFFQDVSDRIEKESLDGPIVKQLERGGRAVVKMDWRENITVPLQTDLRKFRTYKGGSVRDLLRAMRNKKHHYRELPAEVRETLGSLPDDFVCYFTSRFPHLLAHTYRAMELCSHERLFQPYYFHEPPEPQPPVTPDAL
method summary: IRE1α TR-FRET competition binding assay
measurement context: competition with Kinase Tracer 236, 0.1 μM; one hour at room temperature
Source text: To determine the affinity of compound binding to the kinase domain of IRE1 alpha, a Time Resolved Fluorescence Resonance Energy Transfer (TR-FRET) competition assay was used. […] Binding of the tracer to the IRE1 protein alpha was detected in an Envision instrument (PerkinElmer) equipped with a TRF laser option and a LANCE/Delfia Dual/Bias D400/D630 mirror (Ex 347 nm, 1st Em 665 nm, 2nd Em 615 nm). […]
Number in nM, nothing else.

Please give the documented IC50 of `O=S(=O)(Cc1ccncc1)Nc1ccc(Oc2ncccc2-c2ccnc(N[C@H]3CCCNC3)n2)c(F)c1F`
7

State its IC50 for this molecule: COC1CNCC(Nc2nccc(-c3cccnc3Oc3cc(F)c(NS(=O)(=O)Cc4ccccc4)c(F)c3F)n2)C1 (single isomer, unassigned) [Compound 319]
0.48

Entry O=S(=O)(Cc1ccccc1F)Nc1c(F)cc(Oc2ncccc2-c2ccnc(NC3CNCC(C4CC4)C3)n2)c(F)c1F (single isomer, unassigned) [Compound 326] needs its IC50 filled in; supply it.
0.61

// Input: CC1(CF)CNCC(Nc2nccc(-c3cccnc3Oc3cc(F)c(NS(=O)(=O)Cc4ccccc4)c(F)c3F)n2)C1 (single isomer, unassigned) [Compound 295] . Output its IC50 only.
41

Please give measured IC50 of the following entry: `O=S(=O)(CC1CC2(CCC2)C1)Nc1ccc(Oc2ncccc2-c2ccnc(N[C@H]3CCCNC3)n2)c(F)c1F`
7.5

For the molecule `O=S(=O)(Nc1ccc(Oc2ncccc2-c2ccnc(N[C@H]3CCCNC3)n2)c(F)c1F)c1cccc(OC(F)F)c1` , report IC50.
11
